- Test system: HCC-78
- ASSAY NAME: relative viability (nuclei count vs DMSO), 5 days (fraction); higher = more cells survive
- CONDITIONS USED: first compound 2.53 µM
Reported relative viability values for the following compounds.
Answer using only a numeral; do not append any unit.

Some entries whose results are on file:
COMPOUND: Cc1cnc(-c2cnc(NCCNc3ccc(C#N)cn3)nc2-c2ccc(Cl)cc2Cl)[nH]1 + CC(=O)c1c(C)c2cnc(Nc3ccc(N4CCNCC4)cn3)nc2n(C2CCCC2)c1=O [Palbociclib] (partner 0.5 µM)
relative viability: 0.467

COMPOUND: O=c1[nH]c2ccccc2n1C1CCN(CCCC(c2ccc(F)cc2)c2ccc(F)cc2)CC1 [Pimozide] + C[C@@H](Oc1cc(-c2cnn(C3CCNCC3)c2)cnc1N)c1c(Cl)ccc(F)c1Cl [Crizotinib] (partner 1 µM)
relative viability: 0.354

COMPOUND: Cc1cnc(-c2cnc(NCCNc3ccc(C#N)cn3)nc2-c2ccc(Cl)cc2Cl)[nH]1 + COc1cc2c(Oc3ccc(NC(=O)C4(C(=O)Nc5ccc(F)cc5)CC4)cc3F)ccnc2cc1OCCCN1CCOCC1 [Foretinib] (partner 0.25 µM)
relative viability: 0.568

Req: Please indicate relative viability recorded for O=c1[nH]c2ccccc2n1C1CCN(CCCC(c2ccc(F)cc2)c2ccc(F)cc2)CC1 [Pimozide] + CC(C)C[C@H](NC(=O)[C@H](Cc1ccccc1)NC(=O)c1cnccn1)B(O)O [Bortezomib] (partner 0.002 µM)
Resp: 0.443

Req: Please indicate relative viability recorded for O=c1[nH]c2ccccc2n1C1CCN(CCCC(c2ccc(F)cc2)c2ccc(F)cc2)CC1 [Pimozide] + O=C(c1cc(Cc2n[nH]c(=O)c3ccccc23)ccc1F)N1CCN(C(=O)C2CC2)CC1 [Olaparib] (partner 8 µM)
Resp: 0.709

Req: Please indicate relative viability recorded for Cc1cnc(-c2cnc(NCCNc3ccc(C#N)cn3)nc2-c2ccc(Cl)cc2Cl)[nH]1 + C[C@@H](Oc1cc(-c2cnn(C3CCNCC3)c2)cnc1N)c1c(Cl)ccc(F)c1Cl [Crizotinib] (partner 1 µM)
Resp: 0.362

Req: Please indicate relative viability recorded for Cc1cnc(-c2cnc(NCCNc3ccc(C#N)cn3)nc2-c2ccc(Cl)cc2Cl)[nH]1 + CS(=O)(=O)CCNCc1ccc(-c2ccc3ncnc(Nc4ccc(OCc5cccc(F)c5)c(Cl)c4)c3c2)o1 [Lapatinib] (partner 2 µM)
Resp: 0.546

* * *

- Tested on: ChaGo-K-1
- ASSAY NAME: relative viability (nuclei count vs DMSO), 5 days (fraction); higher = more cells survive
- CONDITIONS USED: first compound 0.0002 µM
READOUT KIND: relative viability
Answer using only a numeral; do not append any unit.

MOLECULE: CC(=O)O[C@@]12CO[C@@H]1C[C@H](O)[C@@]1(C)C(=O)[C@H](O)C3=C(C)[C@@H](OC(=O)[C@H](O)[C@@H](NC(=O)OC(C)(C)C)c4ccccc4)C[C@@](O)([C@@H](OC(=O)c4ccccc4)[C@H]21)C3(C)C [Docetaxel] + Cc1cc(Nc2cc(N3CCN(C)CC3)nc(Sc3ccc(NC(=O)C4CC4)cc3)n2)n[nH]1 [Tozasertib] (partner 0.1 µM)
relative viability: 0.218
--
MOLECULE: CC(=O)O[C@@]12CO[C@@H]1C[C@H](O)[C@@]1(C)C(=O)[C@H](O)C3=C(C)[C@@H](OC(=O)[C@H](O)[C@@H](NC(=O)OC(C)(C)C)c4ccccc4)C[C@@](O)([C@@H](OC(=O)c4ccccc4)[C@H]21)C3(C)C [Docetaxel] + COc1cc2c(Oc3ccc(NC(=O)C4(C(=O)Nc5ccc(F)cc5)CC4)cc3F)ccnc2cc1OCCCN1CCOCC1 [Foretinib] (partner 0.25 µM)
relative viability: 0.89
--
MOLECULE: CC(=O)O[C@@]12CO[C@@H]1C[C@H](O)[C@@]1(C)C(=O)[C@H](O)C3=C(C)[C@@H](OC(=O)[C@H](O)[C@@H](NC(=O)OC(C)(C)C)c4ccccc4)C[C@@](O)([C@@H](OC(=O)c4ccccc4)[C@H]21)C3(C)C [Docetaxel] + CC(=O)c1c(C)c2cnc(Nc3ccc(N4CCNCC4)cn3)nc2n(C2CCCC2)c1=O [Palbociclib] (partner 0.5 µM)
relative viability: 0.883

Now for another entry.
Req: State relative viability on ChaGo-K-1. Entry: CC(=O)O[C@@]12CO[C@@H]1C[C@H](O)[C@@]1(C)C(=O)[C@H](O)C3=C(C)[C@@H](OC(=O)[C@H](O)[C@@H](NC(=O)OC(C)(C)C)c4ccccc4)C[C@@](O)([C@@H](OC(=O)c4ccccc4)[C@H]21)C3(C)C [Docetaxel] + NC(=O)Nc1cc(-c2cccc(F)c2)sc1C(=O)N[C@H]1CCCNC1 [AZD7762] (partner 0.2 µM)
Resp: 0.817
